- TARGET OR SYSTEM: m-calpain (Rattus norvegicus, UniProt Q07009)
- Construct: m-calpain was purified from rat brain; from tissue; host or cells: rat brain
- Sequence (Q07009 20-700 limits assumed): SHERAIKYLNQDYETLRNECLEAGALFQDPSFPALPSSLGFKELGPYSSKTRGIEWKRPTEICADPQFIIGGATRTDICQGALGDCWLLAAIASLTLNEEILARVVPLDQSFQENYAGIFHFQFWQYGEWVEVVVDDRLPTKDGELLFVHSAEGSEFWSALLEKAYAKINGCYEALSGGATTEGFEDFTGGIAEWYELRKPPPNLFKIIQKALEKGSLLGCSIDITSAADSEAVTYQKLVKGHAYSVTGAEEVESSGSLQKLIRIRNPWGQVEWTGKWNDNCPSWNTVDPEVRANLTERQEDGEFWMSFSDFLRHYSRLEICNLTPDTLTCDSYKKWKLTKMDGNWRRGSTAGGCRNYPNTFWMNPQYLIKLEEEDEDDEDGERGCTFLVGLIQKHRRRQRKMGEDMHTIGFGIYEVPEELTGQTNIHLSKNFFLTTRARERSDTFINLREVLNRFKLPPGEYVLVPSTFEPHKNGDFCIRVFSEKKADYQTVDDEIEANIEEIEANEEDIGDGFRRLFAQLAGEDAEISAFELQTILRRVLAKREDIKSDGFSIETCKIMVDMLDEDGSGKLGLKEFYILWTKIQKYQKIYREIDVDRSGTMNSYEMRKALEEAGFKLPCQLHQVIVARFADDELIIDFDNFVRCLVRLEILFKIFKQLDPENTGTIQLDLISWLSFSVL
- Sequence (Q64537 1-270 partner): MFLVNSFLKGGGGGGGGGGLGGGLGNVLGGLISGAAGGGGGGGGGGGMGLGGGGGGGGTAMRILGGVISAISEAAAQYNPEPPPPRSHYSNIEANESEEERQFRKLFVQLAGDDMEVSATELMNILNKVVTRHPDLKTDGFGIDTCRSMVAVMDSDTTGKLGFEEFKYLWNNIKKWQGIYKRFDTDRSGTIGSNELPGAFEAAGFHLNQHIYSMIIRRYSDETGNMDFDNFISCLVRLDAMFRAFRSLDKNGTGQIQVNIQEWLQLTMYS
- EXPERIMENT NOTES: Thiol protease inhibitory activity, m-calpain purified from rat brain
- Format: biochemical
- ASSAY CONDITIONS: Table 4
pIC50: −log10 of the molar value.
MEASURE: pIC50

{"columns": ["COMPOUND", "TARGET OR SYSTEM", "ENDPOINT VALUE"],
 "data": [
  ["CCCC[C@H](NC(=O)[C@H](CC(C)C)NC(=O)c1ccc(F)cc1F)C(=O)CSCc1ccco1 [59 (No. 121)]", "m-calpain (Rattus norvegicus, UniProt Q07009)", 5.38],
  ["CCCC[C@H](NC(=O)[C@H](CC(C)C)NC(=O)c1ccccc1OC)C(=O)CSCc1ccco1 [77 (No. 151)]", "m-calpain (Rattus norvegicus, UniProt Q07009)", 5.92],
  ["CCCC[C@H](NC(=O)[C@H](CC(C)C)NC(=O)OCc1ccccc1)C(=O)CSCc1ccccn1 [105 (No. 226)]", "m-calpain (Rattus norvegicus, UniProt Q07009)", 5.89]
]}

[P] CCCC[C@H](NC(=O)[C@H](CC(C)C)NC(=O)c1ccc(C(=O)OC)cc1)C(=O)CSCc1ccco1 [81 (No. 157)]
[Q] CCCC[C@H](NC(=O)[C@H](CC(C)C)NC(=O)c1ccccc1F)C(=O)CSCc1ccco1 [55 (No. 117)]
[R] CCCC[C@H](NC(=O)[C@H](CC(C)C)NC(=O)c1cc(F)cc(F)c1)C(=O)CSCc1ccco1 [63 (No. 125)]
In: List the 3 entries from lowest pIC50 to highest pIC50 value. Please respond with the labels ordered as the question requires.
Out: R, P, Q

[P] CCCC[C@H](NC(=O)[C@H](CC(C)C)NC(=O)OCc1cccc(C#N)c1)C(=O)CSCc1ccco1 [26 (No. 57)]
[Q] CCCC[C@H](NC(=O)[C@H](CC(C)C)NC(=O)C=Cc1ccc(OC)cc1OC)C(=O)CSCc1ccco1 [85 (No. 166)]
In: Hi, I'm comparing two records. Which one has the lower pIC50, P or Q ? In your reply, give the label of the chosen option.
Out: P

[P] CCCC[C@H](NC(=O)[C@H](CC(C)C)NC(=O)OCc1ccccc1)C(=O)CSCc1cccnc1 [106 (No. 228)]
[Q] CCCC[C@H](NC(=O)[C@H](CC(C)C)NC(=O)c1c(F)ccc(F)c1F)C(=O)CSCc1ccco1 [65 (No. 128)]
[R] CCCC[C@H](NC(=O)[C@H](CC(C)C)NC(=O)c1cc(F)ccc1F)C(=O)CSCc1ccco1 [60 (No. 122)]
In: Hey, quick one: sort these by pIC50, largest value first please. Please respond with the labels ordered as the question requires.
Out: R, P, Q
(R: 5.89, P: 5.51, Q: 5.30)
